These measurements were taken from ChEMBL document CHEMBL1201862.

tested on: SN12C; assay: NCI tumour cell line growth inhibition, 48 h
Active and inactive are the calls of the source. No stated cut-off is given here; in the data, active = GI50 up to about 1.1 µM and inactive = higher.
GI50 values, listed per item
measurement_kind: GI50

                                   compound  system  measurement_kind       value_observed
0  O=C1C=CC=C/C1=C1/SC(c2ccccc2)=C(O)N1c1ccccc1   SN12C              GI50  > 100 µM (inactive)
1        CCOC(=O)c1ncn2c1[nH]c(=O)c1ccccc12   SN12C              GI50  > 100 µM (inactive)
2  O=C(NC12CC3CC(CC(C3)C1)C2)C(=O)c1c[nH]c2ccc(Cl)cc12   SN12C              GI50   56.1 µM (inactive)
3  C=CC(=O)NC(O)(C(=O)OCC)C(F)(F)F (centres undefined)   SN12C              GI50  > 100 µM (inactive)
4  CCOC(=O)CCc1ccc(NC(=O)/C=C/c2ccc([N+](=O)[O-])o2)cc1   SN12C              GI50   1.43 µM (inactive)
5  COC(=O)C(Cc1nc2ccc(Cl)cc2nc1O)C(=O)C(=O)Nc1cc(C)ccc1C (centres undefined)   SN12C              GI50  > 100 µM (inactive)
6                              C/C=C(/I)CBr   SN12C              GI50   17.2 µM (inactive)
7  Nc1c(-c2ccc(-c3c(N)[n+]([O-])c4ccccc4[n+]3[O-])cc2)[n+]([O-])c2ccccc2[n+]1[O-]   SN12C              GI50   11.7 µM (inactive)
8  c1ccc2c(c1)CCc1c-2n(CCN2CCCCC2)c2ccccc12   SN12C              GI50   17.3 µM (inactive)

---

test system: MDA-MB-435; experiment: NCI tumour cell line growth inhibition, 48 h
Calls of active or inactive are those of the source. No stated cut-off is given here; in the data, active = GI50 up to about 1.1 µM and inactive = higher. Where a SMILES comes first, the peptide text is derived from it. [ ]: non-standard residue; d: D form. The star is where a group is joined. Phe(4-NO2) = N[CH](Cc1ccc([N+](=O)[O-])cc1)C(=O)O; Cbz = O=C(OCc1ccccc1)*
GI50 values, listed per item

molecule	GI50
O=c1cc(/N=N\c2ccc(Br)cc2)[nH]c(=S)[nH]1	19.7 µM (inactive)
CC(=O)OC1=CC(n2cc(F)c(=O)[nH]c2=O)OC(C)C1=O (centres undefined)	11.4 µM (inactive)
Oc1c2cc(Cl)cc1COCc1cc(Cl)cc(c1O)COCc1cc(Cl)cc(c1O)COC2	40.7 µM (inactive)
CCOC(=O)CCC(NC(=O)OCc1ccccc1)C(=O)NC(CCC(=O)OCC)C(=O)NC(Cc1ccc([N+](=O)[O-])cc1)C(=O)NC(CCC(=O)OCC)C(=O)NC(CCC(=O)OCC)C(=O)OCC (centres undefined) (Cbz-E(OEt)E(OEt)[Phe(4-NO2)]E(OEt)E(OEt)-OEt; configuration not given here)	> 100 µM (inactive)

---

tested on: XF498; assay: NCI tumour cell line growth inhibition, 48 h
Active and inactive are the calls of the source. Rule as the data show it: active = GI50 up to about 1.1 µM and inactive = higher.
Outcome codes: label 1 (active), label 0 (inactive)

>>> df
                                    compound  system  assigned_label
 0       O=C1C(CO)=C(CO)C(=O)c2c(O)ccc(O)c21   XF498         label 1
 1  NS(=O)(=O)c1cc2c(cc1Cl)NC(C(=O)c1cc(=O)c3ccc(O)cc3o1)=NS2(=O)=O   XF498         label 0
 2  O=c1ncccn1[C@@H]1O[C@H](CO)[C@H](O)C1O (stereo not given in full)   XF498         label 0
 3  C=C1C(=O)C23C(O)CC4C(C)(C)CCC(O)C4(C)C2CC(OC(C)=O)C1[C@H]3O (stereo not given in full)   XF498         label 0
 4  Cc1ccc(S(=O)(=O)N/N=C(\c2nc3ccc([N+](=O)[O-])cc3[nH]c2=O)C(O)c2ccc([N+](=O)[O-])cc2)cc1 (stereo not given)   XF498         label 0
 5  COc1cc2c[n+](C)c3c4ccccc4ccc3c2cc1OC.COc1cc2cnc3c4ccccc4ccc3c2cc1OC   XF498         label 0
 6             CC1(C)N=C(Oc2ccccc2)n2nccc2N1   XF498         label 0
 7  Nc1c(-c2ccc(-c3c(N)[n+]([O-])c4ccccc4[n+]3[O-])cc2)[n+]([O-])c2ccccc2[n+]1[O-]   XF498         label 0
 8  CCCCN(CCCC)CC(C(=O)Nc1ccccc1)/C(C)=N\NC(=O)c1ccncc1 (stereo not given)   XF498         label 0
 9  OC(c1ccccn1)C1CNc2ccccc21 (stereo not given)   XF498         label 0
10  O=C(CC1(O)C(=O)Nc2c(Cl)ccc(Cl)c21)c1ccc2ccccc2c1 (stereo not given)   XF498         label 0
11        Cc1nc2c(n1CC(C)C)C(=O)c1ccccc1C2=O   XF498         label 0
12  C=C(C)C1C/C=C(/C)CCCC2(CCC3=C(CC(C(=C)C)C/C=C(/C)CCC3)O2)C(=O)C1 (stereo not given)   XF498         label 0
13       COc1ccc(Cc2nccc3cc(OC)c(OC)cc23)cc1   XF498         label 0
14  COC1=CC(=O)c2ccc(C(C)C)cc2C1(C)C1=NC(C)(C)CO1 (stereo not given)   XF498         label 0
15               COc1cc2ccc(CC(N)=O)cc2cc1OC   XF498         label 0
16  COC(=O)C1=C(C(=O)OC)N(C(C)C)[C@H]2C(C(=O)OC)=C(C(=O)OC)N(C(C)C)[C@@H]12   XF498         label 0
17  O=C1OC(=O)C2C3CCC(O3)C12 (stereo not given)   XF498         label 0
18  CC12CCCCC1C(=O)C2(Cl)Cl (stereo not given)   XF498         label 0
19  CC[C@](O)(C(=O)O)c1cc2n(c(=O)c1CO)Cc1cc3ccccc3nc1-2   XF498         label 1

---

system: SR; test: NCI tumour cell line growth inhibition, 48 h
Calls of active or inactive are those of the source. No stated cut-off is given here; in the data, active = GI50 up to about 1.1 µM and inactive = higher.
Outcome codes: 1 (active), 0 (inactive)

In [3]: df
Out[3]:
                                   molecule  assigned_label
0  CC(CC(C)[C@H]1CCC2[C@H]3C(CC(=O)[C@@]21C)[C@@]1(C)CCC(O)C[C@H]1C[C@@H]3O)C(=O)O (stereo partly drawn)               0
1  CC(C)(C)OC(=O)N1C2CCCC23O[C@@H]1c1cc2c(cc1C3=O)OCO2 (stereo partly drawn)               0
2  O=C1OCC2=C1C(c1ccc3c(c1)OCO3)c1cc3c(cc1O2)OCO3 (stereo not drawn)               1

---

GI50 values, listed per item
test system: MDA-MB-435; assay: NCI tumour cell line growth inhibition, 48 h
Active and inactive are the calls of the source. No stated cut-off is given here; in the data, active = GI50 up to about 1.1 µM and inactive = higher.

compound	GI50
Nc1c2c(nc3ccccc13)-c1ccccc1CCC2	13.5 µM (inactive)
COc1cc([C@@H]2c3cc4c(cc3[C@@H](c3c(O)cc(O)c5c3O[C@H](c3ccc(O)c(O)c3)[C@@H](O)C5)[C@H]3COC(=O)[C@H]23)OCO4)cc(OC)c1O	> 100 µM (inactive)
COc1ccc(C(OCC2OC3(COC(c4ccccc4)(c4ccc(OC)cc4)c4ccc(OC)cc4)C(Oc4nc(=O)ccn43)C2O)(c2ccccc2)c2ccc(OC)cc2)cc1 (stereo not drawn)	> 100 µM (inactive)

---

tested on: T47D; test: NCI tumour cell line growth inhibition, 48 h
The source made the active and inactive calls. No stated cut-off is given here; in the data, active = GI50 up to about 1.1 µM and inactive = higher.
GI50 values, listed per item
measurement_kind: GI50

compound	system	value_observed
Cc1ccc2c(c1)Sc1ccc(/N=N/N(C)C)cc1N2C	T47D	31.7 µM (inactive)
COc1cc2c[n+](C)c3c4ccccc4ccc3c2cc1OC.COc1cc2cnc3c4ccccc4ccc3c2cc1OC	T47D	3.14 µM (inactive)
Cc1noc(NS(=O)(=O)c2ccc(NC(=O)c3ccc4nc5ccccc5c(Nc5ccc(S(=O)(=O)Nc6onc(C)c6C)cc5)c4c3)cc2)c1C	T47D	40.2 µM (inactive)
OCCCCn1cc(Cn2ncc3c(O)ncnc32)nn1	T47D	> 100 µM (inactive)
Cc1cn(C2CC(N/C(=N/C#N)NCC3OC(n4cnc5c(N)ncnc54)CC3O)C(CO)O2)c(=O)[nH]c1=O (stereo not given)	T47D	> 100 µM (inactive)
CC(C)(C)C(=O)OCC1C(=O)OCC1C(=O)N1Cc2cc3ccccc3nc2C1 (stereo not given)	T47D	2.38 µM (inactive)
Cc1cc(O)cc(O)c1C(=O)O[C@]1(C)C(=O)C=C2C=C(/C=C/C(=O)O)OC=C2C1=O	T47D	> 100 µM (inactive)
COc1cccc(Nc2n[nH]c(NS(=O)(=O)c3cc(C)c(Cl)cc3S)n2)c1	T47D	> 100 µM (inactive)
COc1cc([C@@H]2c3cc4c(cc3[C@@H](Nc3ccc(Cl)cc3C(=O)c3ccccc3)[C@H]3COC(=O)[C@H]23)OCO4)cc(OC)c1OC	T47D	> 100 µM (inactive)
CC(=O)N1c2ccccc2C23CCN4CC5=CCOC(O)C(C5CC42)C13 (stereo not given)	T47D	> 100 µM (inactive)
CCOC(=O)c1cc2cc(Cc3ccc4[nH]c(C(=O)OCC)cc4c3)ccc2[nH]1	T47D	32.4 µM (inactive)
CCOC(=O)CCc1ccc(NC(=O)/C=C/c2ccc([N+](=O)[O-])o2)cc1	T47D	3.24 µM (inactive)
C=C(CCC(C(=O)O)C1CCC2(C)C3=C(CCC12C)C1(C)CCC(O)C(C)(C)C1CC3)C(C)C (stereo not given)	T47D	58.1 µM (inactive)
COC1OC(CS(=O)(=O)O)C(O)C(O)C1O (stereo not given)	T47D	> 100 µM (inactive)
CO[C@H]1C=C[C@@]23c4cc5c(cc4CO[C@]2(O)CN(C)[C@H]3C1)OCO5	T47D	> 100 µM (inactive)
Cc1n[nH]c(=O)n1/N=C/c1ccc(F)cc1	T47D	> 100 µM (inactive)
CCOC(=O)c1sc(N)nc1N1CCCC1	T47D	> 100 µM (inactive)
CCC1(OC(=O)CN)C(=O)OCc2c1cc1n(c2=O)Cc2cc3ccccc3nc2-1 (stereo not given)	T47D	0.012 µM (active)
CC1CC[C@@H](C(C)C)[C@H](Oc2nnc(C3OC(CO)C(O)C3O)o2)C1 (stereo not given in full)	T47D	> 100 µM (inactive)
CCOC1OC(COC(=O)C(C)(C)C)C(O)CC1n1cc(C)c(=O)[nH]c1=O (stereo not given)	T47D	> 100 µM (inactive)
C=C1C(=O)O[C@H]2C[C@@]3(C)[C@H](O)CCC(=C)[C@@H]3[C@@H](OC(C)=O)[C@H]12	T47D	4.65 µM (inactive)
CC[C@](O)(C(=O)O)c1cc2n(c(=O)c1CO)Cc1cc3ccccc3nc1-2	T47D	0.0324 µM (active)
COc1cc(C(=O)NC2CCc3cc(OC)c(OC)c(OC)c3-c3ccc(OC)c(=O)cc32)cc(OC)c1OC (stereo not given)	T47D	18.8 µM (inactive)
O=C1CSC(c2cccc(Oc3ccccc3)c2)N1c1cc(Cl)ccc1Cl (stereo not given)	T47D	21.7 µM (inactive)
Cc1occc1/C(S)=N\c1ccc(Cl)c(C(=O)OCC2CC2)c1	T47D	35 µM (inactive)
O=C(/C=C1\Nc2ccccc2N\C1=C\C(=O)c1ccc(Cl)cc1)c1ccccc1	T47D	16 µM (inactive)
CC1=NN(C(=O)CC(=O)Nc2ccccc2C)C(=O)C1/N=N\c1ccc(S(=O)(=O)c2ccc(/N=N/C3C(=O)N(C(=O)CC(=O)Nc4ccccc4C)N=C3C)cc2)cc1 (stereo not given)	T47D	> 100 µM (inactive)
CCOC(=O)c1nc2ccccc2nc1Nc1ccc(OC)cc1	T47D	43.5 µM (inactive)
O=P(c1ccccc1)(c1ccccc1)c1ccc2c(c1)OCCOCCOCCOCCO2	T47D	> 100 µM (inactive)
CS[C@]12[C@@H]3C(=O)N(C)C(=O)[C@@H]3[C@](C)(C(=O)N1C)C(=O)N2c1ccccc1	T47D	> 100 µM (inactive)
